// note: IC50 values for UniProt:P42338 were reported in different studies

[ask] Notebook entry, UniProt:P42338 assay: IC50 of C[C@H](Nc1nc(N)ncc1C#N)c1nc2cccc(-c3ccnnc3)c2c(=O)n1-c1ccccc1 = ?
[reply] 1 to 10 µM

[ask] Notebook entry, UniProt:P42338 assay: IC50 of C[C@H](Nc1ncnc2[nH]cnc12)c1cc2cccc(Cl)c2c([S+]([O-])CCN2CCCC2)n1 (some centres unmarked) = ?
[reply] < 10 µM

[ask] Notebook entry, UniProt:P42338 assay: IC50 of C[C@H](Nc1ncnc2scnc12)c1cc2ccccc2c(=O)n1-c1ccccc1 = ?
[reply] 1 to 10 µM

[ask] Notebook entry, UniProt:P42338 assay: IC50 of Nc1nc2cc(-c3ccc4ncc(-c5ccncc5)nc4c3)ccc2o1 = ?
[reply] < 10 µM

###

// note: IC50 values for PIK3CB (Human) (UniProt P42338) were reported in different studies

Reference set (3 entries):
{"structure_smiles_string": "Cc1cccc2cc(Cn3nc(I)c4c(N)ncnc43)n(C3CCCCC3)c(=O)c12", "measurement_target": "PIK3CB (Human) (UniProt P42338)", "IC50": "> 10000 nM"}
{"structure_smiles_string": "CCN(CC)c1ncc2c(n1)-c1sc(NC(=O)N3C[C@H](O)C[C@H]3C(N)=O)nc1CC2", "measurement_target": "PIK3CB (Human) (UniProt P42338)", "IC50": "397 nM"}
{"structure_smiles_string": "O=C(c1cnc2ccc(-c3cnc(Cl)c(NS(=O)(=O)c4ccccc4)c3)cn12)N1CCOCC1", "measurement_target": "PIK3CB (Human) (UniProt P42338)", "IC50": "< 1000 nM"}

Here's the next entry for you.
[ask] Notebook entry, PIK3CB (Human) (UniProt P42338) assay: IC50 of C[C@@H]1CN(C2CN(c3cnc4ccc(-c5ccc6oc(N)nc6c5)nc4n3)C2)CCN1C = ?
[reply] > 10000 nM

###

// note: IC50 values for PIK3CB (Human) (UniProt P42338) were reported in different studies

Reference set (6 entries):
{"molecule": "C[C@H](NC(=O)c1c(N)nn2cccnc12)c1cc2cccc(F)c2c(=O)n1-c1ccccc1", "IC50": "0.1 to 1 µM"}
{"molecule": "Cc1cccc2cc([C@H](C)Nc3ncnc4[nH]c(Cl)nc34)n(C3CC3)c(=O)c12", "IC50": "> 10 µM"}
{"molecule": "CC(=O)Nc1nc2cc(-c3ccc4nc(N)oc4c3)ccc2s1", "IC50": "< 0.1 µM"}
{"molecule": "Nc1nc2cc(-c3ccc4ncc(NC5CCOCC5)nc4c3)ccc2o1", "IC50": "< 10 µM"}
{"molecule": "Nc1nc2cc(-c3ccc4ncc(C(=O)N5CCOCC5)nc4c3)ccc2o1", "IC50": "> 10 µM"}
{"molecule": "CNC(=O)C(C)Cn1cnc2ccc(-c3cnc(OC)c(NS(=O)(=O)c4ccc(C)cc4C)c3)cc2c1=O (single isomer, unassigned)", "IC50": "0.537 µM"}

[ask] Notebook entry, PIK3CB (Human) (UniProt P42338) assay: IC50 of COc1ncc(-c2ccc3ncc(C(=O)N4CCOCC4)n3c2)cc1NS(=O)(=O)c1ccccc1F = ?
[reply] < 10 µM

[ask] Notebook entry, PIK3CB (Human) (UniProt P42338) assay: IC50 of COc1ncc(-c2cccc3cc([C@H](C)Nc4ncnc5scnc45)n(C4CC4)c(=O)c23)cn1 = ?
[reply] 1 to 10 µM

###

// note: IC50 values for PIK3CB (Human) (UniProt P42338) were reported in different studies

Reference set (3 entries):
{"compound": "C[C@H](Nc1ncnc2[nH]cnc12)c1cc2cccc(Cl)c2c(=O)n1C1CC1", "measured_value": "< 100 nM"}
{"compound": "Cc1nc2c(-c3nnc[nH]3)cc(-c3ccnc(C#N)c3)cc2n1-c1ccnc2cc(F)cc(F)c12 (single isomer, unassigned)", "measured_value": "30 nM"}
{"compound": "C[C@H](NC(=O)c1c(N)nn2cccnc12)c1cc2cccc(C#CCNC(=O)C3CCC(=O)C3)c2c(=O)n1-c1ccccc1 (stereo partly shown)", "measured_value": "1000 to 10000 nM"}

Here's the next entry for you.
[ask] Can you look up the measured IC50 of Cc1ccccc1N1C(=O)C2C(C=NN2C)N=C1Cn1nc(-c2cc(O)cc(F)c2)c2c(N)ncnc21 (stereo not shown) for me?
[reply] > 10000 nM

###

// note: IC50 values for PIK3CB (Human) were reported in different studies

Reference set (5 entries):
{"compound": "Nc1nccnc1C(=O)N1CCC[C@H]1c1cc2cccc(Cl)c2c(=O)n1-c1ccccc1", "measurement_target": "PIK3CB (Human)", "readout_label": "IC50", "measured_value": "> 10 µM"}
{"compound": "Cn1ncc2c(-c3cnc(N)nc3)nc(N3CCOCC3)nc21", "measurement_target": "PIK3CB (Human)", "readout_label": "IC50", "measured_value": "0.1 to 10 µM"}
{"compound": "C[C@H](NC(=O)c1c(N)nn2cccnc12)c1cc2cccc(-c3cncs3)c2c(=O)n1-c1ccccc1", "measurement_target": "PIK3CB (Human)", "readout_label": "IC50", "measured_value": "> 10 µM"}
{"compound": "Cc1nc2c(-c3nnc[nH]3)cc(-c3ccnc(C#N)c3)cc2n1-c1ccnc2c(Cl)cccc12 (single isomer, unassigned)", "measurement_target": "PIK3CB (Human)", "readout_label": "IC50", "measured_value": "0.057 µM"}
{"compound": "CN1CCN(CCNc2cnc3ccc(-c4ccc5oc(N)nc5c4)cc3n2)CC1", "measurement_target": "PIK3CB (Human)", "readout_label": "IC50", "measured_value": "< 1 µM"}

[ask] Notebook entry, PIK3CB (Human) assay: IC50 of Nc1cn2cc(-c3ccc4nc(N)oc4c3)ccc2n1 = ?
[reply] < 10 µM

[ask] Notebook entry, PIK3CB (Human) assay: IC50 of COc1ccc(-c2cccc3cc([C@H](C)Nc4nc(N)ncc4C#N)n(-c4ccccc4)c(=O)c23)cn1 = ?
[reply] 1 to 10 µM

[ask] Notebook entry, PIK3CB (Human) assay: IC50 of CCn1cnc2ccc(-c3ccc4oc(N)nc4c3)cc2c1=O = ?
[reply] < 10 µM

[ask] Notebook entry, PIK3CB (Human) assay: IC50 of C[C@@H]1CN(CCCNC(=O)c2nc3c(N4CCOCC4)nc(-c4cnn(C)c4)nc3[nH]2)C[C@H](C)O1 = ?
[reply] > 10 µM

[ask] Notebook entry, PIK3CB (Human) assay: IC50 of Nc1nc2cc(-c3ccc4ncc(N5CCN(C(=O)C6(N)CCC6)CC5)nc4c3)ccc2o1 = ?
[reply] < 1 µM

[ask] Notebook entry, PIK3CB (Human) assay: IC50 of Cc1ccccc1-n1c(Cn2nc(-c3ccc(F)c(O)c3)c3c(N)ncnc32)cc2cccc(F)c2c1=O = ?
[reply] > 10 µM

[ask] Notebook entry, PIK3CB (Human) assay: IC50 of C[C@H](Nc1nc(N)ncc1C#N)c1cc2cccc(-c3cncc(S(C)(=O)=O)c3)c2c(=O)n1-c1ccccc1 = ?
[reply] 1 to 10 µM

###

// note: pIC50 values for PIK3CB (Human) were reported in different studies
pIC50: −log10 of the molar value.

{"compound": "Nc1nc2cc(-c3ccc4ncc(N5CCC(O)CC5)nc4n3)ccc2o1", "pIC50": "> 5.00"}
{"compound": "Nc1nc2c(-c3ccc4ncc(C(=O)N5CCOCC5)n4c3)cccc2o1", "pIC50": "> 5.00"}
{"compound": "Cc1csc2nc(Cn3nc(C#C[C@@H](C)O)c4c(N)ncnc43)n(-c3ncccc3C(F)(F)F)c(=O)c12", "pIC50": "> 5.00"}
{"compound": "CNC(=O)COc1nc([C@H](C)Nc2ncnc3[nH]cnc23)cc2cccc(Cl)c12", "pIC50": "> 5.00"}
{"compound": "CCc1ccccc1-n1c(Cn2nc(C#C[C@@H](C)O)c3c(N)ncnc32)cc2cccc(C)c2c1=O", "pIC50": "> 5.00"}
{"compound": "C[C@H]1CN(c2cnc3ccc(-c4cccc5c(N)nsc45)cc3n2)CCN1", "pIC50": "< 5.00"}
{"compound": "Cc1cccc2cc(Cn3nc(-c4cc(O)cc(F)c4)c4c(N)ncnc43)n(-c3ccccc3O)c(=O)c12", "pIC50": "> 6.00"}
{"compound": "COc1cc(-c2cccc3cc([C@H](C)NC(=O)c4c(N)nn5cccnc45)n(C4CC4)c(=O)c23)ccn1", "pIC50": "5.00 to 6.00"}

[ask] Can you look up the measured pIC50 of Cc1cccc2cc(Cn3nc(-c4ccc(O)c(Cl)c4)c4c(N)ncnc43)n(-c3ccccc3F)c(=O)c12 for me?
[reply] < 5.00
